Would you mind telling me the reported pIC50 of each entry?
# Target under test: canine TRPM8 (Canis lupus familiaris, UniProt Q1A7N1)
# Sequence (Q1A7N1 1-1104): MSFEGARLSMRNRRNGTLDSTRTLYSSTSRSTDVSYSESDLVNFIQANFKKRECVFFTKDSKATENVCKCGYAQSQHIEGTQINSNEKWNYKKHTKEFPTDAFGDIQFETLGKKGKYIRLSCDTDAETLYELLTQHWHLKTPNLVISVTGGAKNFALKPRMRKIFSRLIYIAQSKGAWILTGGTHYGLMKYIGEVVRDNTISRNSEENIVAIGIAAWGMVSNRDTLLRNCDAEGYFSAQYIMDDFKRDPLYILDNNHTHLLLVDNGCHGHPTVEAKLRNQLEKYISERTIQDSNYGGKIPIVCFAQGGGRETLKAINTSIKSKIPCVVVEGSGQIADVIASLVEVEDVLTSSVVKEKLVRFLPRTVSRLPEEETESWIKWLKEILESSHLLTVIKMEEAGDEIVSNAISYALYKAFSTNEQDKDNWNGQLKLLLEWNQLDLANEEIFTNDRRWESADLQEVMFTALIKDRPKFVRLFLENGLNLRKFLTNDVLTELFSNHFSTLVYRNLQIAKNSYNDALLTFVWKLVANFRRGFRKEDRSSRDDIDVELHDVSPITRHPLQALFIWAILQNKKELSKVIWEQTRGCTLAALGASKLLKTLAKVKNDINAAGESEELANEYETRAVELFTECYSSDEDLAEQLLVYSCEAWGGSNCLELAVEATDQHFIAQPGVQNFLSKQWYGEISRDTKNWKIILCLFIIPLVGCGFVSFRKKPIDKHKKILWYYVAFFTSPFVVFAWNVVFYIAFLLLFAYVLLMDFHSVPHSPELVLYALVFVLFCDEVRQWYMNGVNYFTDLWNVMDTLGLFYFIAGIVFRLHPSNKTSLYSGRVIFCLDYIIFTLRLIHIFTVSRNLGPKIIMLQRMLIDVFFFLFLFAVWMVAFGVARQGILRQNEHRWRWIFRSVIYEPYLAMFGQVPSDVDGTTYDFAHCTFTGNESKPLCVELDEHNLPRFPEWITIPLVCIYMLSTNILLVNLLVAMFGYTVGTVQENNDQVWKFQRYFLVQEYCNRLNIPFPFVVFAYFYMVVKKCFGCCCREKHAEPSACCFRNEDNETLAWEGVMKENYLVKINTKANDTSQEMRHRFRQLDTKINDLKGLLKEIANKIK
# Assay remarks: TRPM8 Patch Clamp Assays (whole-cell, menthol or cold activation)
# Type: cell-based
# Experimental parameters: cold stimulation
One number for each entry, as −log10 of the molar value.

Here are 2 compounds together with their reported answers.
Cc1c(N(Cc2ccc(F)c(C(F)(F)F)c2)S(=O)(=O)c2ccc(C(=O)O)cc2)sc2ccccc12    8.64
Cc1c(N(Cc2ccc(OC(F)(F)F)cc2)S(=O)(=O)c2ccc(C(=O)O)cc2)sc2ccccc12    9.26

Provide measured pIC50 value, entry: CCS(=O)(=O)N(CCN1CCOCC1)c1sc2ccccc2c1C(C)O (stereo not drawn)
8.10

* * *

# Target under test: canine TRPM8 (Canis lupus familiaris)
# Assay remarks: In Vitro Canine TRPM8 Functional Assay (Ca2+ fluorescence, icilin activation)
# Type: cell-based
# Experimental parameters: compound at 0.2 μM; canine TRPM8, icilin activation; read-out: % Inh @ 0.2
For each record, write down the corresponding inhibition at 0.2 µM.
Numbers only, in %.

O=S(=O)(c1ccc(Br)cc1)N(CCCCC(F)(F)F)c1cc2ccccc2s1    55

I would be grateful if you could provide inhibition at 0.2 µM for each of the following entries.
1. O=S(=O)(c1ccccc1)N(Cc1ccc(F)c(F)c1)c1sc2ccccc2c1CO
2. O=S(=O)(c1ccccc1)N(CCN1CCOCC1)c1sc2ccccc2c1Cl
3. Cc1c(N(Cc2ccc3c(c2)OC(F)(F)O3)S(=O)(=O)c2ccc(C(=O)O)cc2)sc2ccccc12
4. O=S(=O)(c1ccc(-c2nnn[nH]2)cc1)N(CCC1CC1)c1cc2ccccc2s1
5. CCS(=O)(=O)N(CC1CC1)c1sc2ccccc2c1C
6. CC(=O)c1c(N(Cc2ccc(OC(F)(F)F)cc2)S(=O)(=O)c2ccc(Br)cc2)sc2ccccc12
7. CCCCCCN(c1sc2ccccc2c1Br)S(=O)(=O)c1ccccc1
8. O=Cc1c(N(Cc2ccc(F)c(C(F)(F)F)c2)S(=O)(=O)c2ccccc2)sc2ccccc12

95
79
102
88
95
87
98
98

* * *

# Target under test: UniProt Q1A7N1
# Assay remarks: In Vitro Canine TRPM8 Functional Assay (Ca2+ fluorescence, icilin activation)
# Assay type: cell-based
# Experimental parameters: HEK293 cells stably expressing canine TRPM8; icilin activation; eight-point dose-response; read-out: IC50
Measured parameter: pIC50
One number for each entry, as −log10 of the molar value.

Example entries begin here.
O=S1NC(c2ccc(S(=O)(=O)N(CCCCC(F)(F)F)c3sc4ccccc4c3Cl)cc2)=NO1 (stereo not shown)    7.30
Cc1c(N(Cc2ccc(F)c(C(F)(F)F)c2)S(=O)(=O)c2ccc(-c3noc(=O)[nH]3)cc2)sc2ccccc12    8.74
Cc1c(N(Cc2ccc(F)c(F)c2)S(=O)(=O)c2cc3ccccc3s2)sc2ccccc12    7.09

Consider the compound `CCCCN(C1=C(N(C)C)c2ccccc2S1(=O)=O)S(=O)(=O)c1ccc(C(=O)O)cc1` . State its measured pIC50.
7.11

* * *

# Target under test: canine TRPM8 (Canis lupus familiaris)
# Assay remarks: In Vitro Canine TRPM8 Functional Assay (Ca2+ fluorescence, icilin activation)
# Assay type: cell-based
# Experimental parameters: HEK293 cells stably expressing canine TRPM8; icilin activation; eight-point dose-response; read-out: IC50
pIC50: −log10 of the molar value.
pIC50 below 8 gives f; pIC50 at or above it gives t.

CSCCN(c1sc2ccccc2c1Br)S(=O)(=O)c1ccccc1    f
CCCCN(c1sc2ccccc2c1Cl)S(=O)(=O)c1ccc(C2=NOS(=O)N2)cc1 (centres unmarked)    f
COc1cccc(CN(c2cc3ccccc3s2)S(=O)(=O)c2ccccc2)c1    f
Cc1c(N(Cc2ccc(F)c(C(F)(F)F)c2)S(=O)(=O)c2cccnc2Cl)sc2ccccc12    f

Query molecule follows.
Check if pIC50 >= 8 (inclusive). Item: `Cc1c(N(Cc2ccc(C(F)(F)F)cc2)S(=O)(=O)c2ccc(C(=O)O)cc2)sc2ccccc12`
t

* * *

# Target under test: UniProt Q1A7N1
# Assay remarks: In Vitro Canine TRPM8 Functional Assay (Ca2+ fluorescence, icilin activation)
# Type: cell-based
# Experimental parameters: HEK293 cells stably expressing canine TRPM8, icilin activation; average of two or more determinations; read-out: IC50
Measured parameter: pIC50
Give bare numbers, as −log10 of the molar value.

Cc1c(N(Cc2ccc(OC(F)(F)F)cc2)S(=O)(=O)c2ccc(-c3nsc(=O)[nH]3)cc2)sc2ccccc12    9.00
Cc1c(N(Cc2ccc(OC(F)(F)F)cc2)S(=O)(=O)c2ccc(-c3nnn[nH]3)nc2)sc2ccccc12    8.66
Cc1c(N(CCC2CC2)S(=O)(=O)c2ccc(-c3noc(=O)[nH]3)nc2)sc2ccccc12    8.22

Go through the list and state pIC50 for each entry.
1. CCS(=O)(=O)N(Cc1ccnc(F)c1)c1sc2ccccc2c1C
2. O=S(=O)(c1ccccc1)N(CCCF)c1cc2ccccc2s1
3. CCS(=O)(=O)N(Cc1c(F)cnc(F)c1F)c1sc2ccccc2c1C
4. Cc1c(N(CCF)S(=O)(=O)c2ccccc2)sc2ccccc12

7.64
7.14
7.01
7.21

Hello, I would appreciate it if you could give pIC50 for each entry below.
1. CC(C)(O)c1c(N(CCCF)S(=O)(=O)c2ccccc2)sc2ccccc12
2. Cc1c(N(Cc2ccc(OC(F)(F)F)cc2)S(=O)(=O)c2ccc(N3CCOCC3)cc2)sc2ccccc12
3. CCS(=O)(=O)N(Cc1cc(F)c(F)c(OC)c1F)c1sc2ccccc2c1C(C)(C)O
4. Cc1c(N(CCCCC(F)(F)F)S(=O)(=O)c2ccc(-c3n[nH]c(=O)[nH]3)cc2)sc2ccccc12

1. 7.82
2. 8.17
3. 8.10
4. 8.43

State recorded pIC50 for all listed compounds.
1. Cc1c(N(Cc2ccc(OC(F)(F)F)cc2)S(=O)(=O)CCC(C)(C)O)sc2ccccc12
2. Cc1c(N(Cc2ccc(OC(F)(F)F)cc2)S(=O)(=O)c2ccc(N(C)C)cc2)sc2ccccc12
3. Cc1c(N(CCCCC(F)(F)F)S(=O)(=O)c2ccc(-c3nn(C)c(=O)[nH]3)cc2)sc2ccccc12
4. Cc1c(N(Cc2ccccc2)S(=O)(=O)c2ccc(F)c(F)c2)sc2ccccc12
5. Cc1c(N(Cc2ccc(OC(F)(F)F)cc2)S(=O)(=O)CCC(=O)O)sc2ccccc12
6. O=S(=O)(c1cc(Br)ccc1Br)N(Cc1ccc(F)c(F)c1)c1sc2ccccc2c1CO
7. Cc1c(N(Cc2ccc(OC(F)(F)F)cc2)S(=O)(=O)c2cnccc2-c2noc(=O)[nH]2)sc2ccccc12
8. COC(C)c1c(N(CCCF)S(=O)(=O)c2ccccc2)sc2ccccc12 (centres unmarked)

[7.62, 8.41, 8.12, 7.60, 7.61, 6.91, 9.15, 7.31]

Below are 4 compounds. Give each one its pIC50.
1. COC(=O)c1ccc(S(=O)(=O)N(CCCF)c2sc3ccccc3c2C)cc1
2. CCS(=O)(=O)N(Cc1ccnc(F)c1)c1sc2ccccc2c1C(C)(C)O
3. Cc1c(N(CCCF)S(=O)(=O)c2ccc(C(=O)O)cc2)sc2ccccc12
4. Cc1c(N(CCCCC(F)(F)F)S(=O)(=O)c2cnccc2-c2nnn[nH]2)sc2ccccc12

[7.66, 7.62, 7.42, 7.89]

* * *

# Target under test: canine TRPM8 (Canis lupus familiaris, UniProt Q1A7N1)
# Assay remarks: In Vitro Canine TRPM8 Functional Assay (Ca2+ fluorescence, icilin activation)
# Assay type: cell-based
# Experimental parameters: HEK293 cells stably expressing canine TRPM8; icilin activation; eight-point dose-response; read-out: IC50
I'd appreciate it if you could supply IC50 values for the items below.
Give bare numbers, in nM.

// each compound listed below needs its IC50
1. Cc1c(N(CCC(F)(F)F)S(=O)(=O)c2ccc(-c3noc(=O)[nH]3)cc2)sc2ccccc12 [Compound 599]
2. COC(=O)CCS(=O)(=O)N(CCC1CC1)c1sc2ccccc2c1C [Compound 600]
3. CCCCN(c1sc2ccccc2c1C)S(=O)(=O)c1ccc(-c2nnn[nH]2)cc1 [Compound 539]
4. O=S(=O)(c1ccc(O)cc1)N(Cc1ccc(F)c(C(F)(F)F)c1)c1sc2ccccc2c1Br [Compound 290]
5. O=C(O)c1ccc(S(=O)(=O)N(Cc2ccc(F)c(C(F)(F)F)c2)c2sc3ccccc3c2CO)cc1 [Compound 218]
6. COC(=O)c1ccccc1S(=O)(=O)N(Cc1ccc(F)c(C(F)(F)F)c1)c1sc2ccccc2c1Br [Compound 197]

1: 16.1; 2: 8.9; 3: 6.7; 4: 5.3; 5: 1; 6: 7

Return reported IC50 values for all items listed beneath this line.
1. CN(C)S(=O)(=O)N(Cc1ccc(F)c(C(F)(F)F)c1)c1sc2ccccc2c1Br [Compound 317]
2. O=c1[nH]c(-c2ccc(S(=O)(=O)N(CCC3CC3)c3cc4ccccc4s3)cc2)no1 [Compound 612]

17
53.7
